# Measurement Protocol: MTT cytotoxicity assay, HepG2
# Type: cell-based
# Conditions: human, HepG2 cells, 0.064 to 40 μM
Test Readout: IC50 at 48 h

CCCCOC(=O)CCCCNC(C)=O [Compound 2, butyl 5-acetamidopentanoate] ... > 40 µM

Please turn your attention to the following entry.
Memo: COCc1ccc(C=O)n1CCCC(=O)O [Compound 5] , reported IC50 at 48 h: > 40 µM

###

Listing of entries alongside the reported IC50 at 48 h.
# Measurement Protocol: MTT cytotoxicity assay, HT-29
# Assay type: cell-based
# Conditions: human, HT-29 cells, HT-29, MTT, 0.064 to 40 μM

COCc1ccc(C=O)n1CCCC(=O)O ... > 40 µM

Please turn your attention to the following entry.
Memo: CCCCOC(=O)CCCCNC(C)=O [Compound 2, butyl 5-acetamidopentanoate] , reported IC50 at 48 h: > 40 µM
